src = patent US20160264649A1

molecular target: HIV-1 JR-FL Env E168K (HIV-1); test: cell-based or functional assay
Entries annotated with measured IC50, TZM-bl pseudovirus neutralization

Use the examples below as a reference point.
1503_H05 (PG16) (TCN-119) (antibody, V domains shown) VH: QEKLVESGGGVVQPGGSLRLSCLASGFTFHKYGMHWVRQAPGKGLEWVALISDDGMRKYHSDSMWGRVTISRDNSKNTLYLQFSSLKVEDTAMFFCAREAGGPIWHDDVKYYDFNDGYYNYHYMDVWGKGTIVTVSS VL: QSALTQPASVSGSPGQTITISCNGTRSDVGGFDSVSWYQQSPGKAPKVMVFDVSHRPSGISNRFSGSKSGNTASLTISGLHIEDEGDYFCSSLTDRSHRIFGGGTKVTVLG; 2 ng/mL
1469_M23 (PG16) (TCN-118) (antibody, V domains shown) VH: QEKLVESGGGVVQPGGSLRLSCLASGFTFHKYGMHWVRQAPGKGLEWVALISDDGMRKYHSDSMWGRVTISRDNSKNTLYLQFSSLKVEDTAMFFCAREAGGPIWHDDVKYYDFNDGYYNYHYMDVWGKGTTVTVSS VL: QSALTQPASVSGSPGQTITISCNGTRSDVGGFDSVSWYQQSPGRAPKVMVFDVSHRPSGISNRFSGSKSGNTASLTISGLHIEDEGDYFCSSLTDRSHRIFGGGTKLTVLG; 5 ng/mL
1489_I13 (PG16) (TCN-120) (antibody, V domains shown) VH: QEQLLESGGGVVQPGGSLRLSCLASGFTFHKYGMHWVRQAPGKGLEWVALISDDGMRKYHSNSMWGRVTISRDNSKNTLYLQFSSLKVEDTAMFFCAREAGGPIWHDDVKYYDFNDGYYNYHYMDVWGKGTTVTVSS VL: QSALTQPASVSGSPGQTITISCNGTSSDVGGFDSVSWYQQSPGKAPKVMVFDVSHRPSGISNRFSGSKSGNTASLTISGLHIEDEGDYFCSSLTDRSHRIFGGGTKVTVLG; 5 ng/mL

Moving on to another binder below.
query: Using the record for 1456_A12 (PG16) (TCN-117) (antibody, V domains shown) VH: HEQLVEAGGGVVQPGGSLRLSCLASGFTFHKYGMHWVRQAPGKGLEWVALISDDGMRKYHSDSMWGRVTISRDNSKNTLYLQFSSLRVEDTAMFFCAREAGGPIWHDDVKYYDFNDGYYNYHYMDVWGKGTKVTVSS VL: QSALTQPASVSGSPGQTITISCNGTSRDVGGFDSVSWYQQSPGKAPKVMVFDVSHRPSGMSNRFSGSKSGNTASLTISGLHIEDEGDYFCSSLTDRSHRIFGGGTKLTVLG , report its IC50, TZM-bl pseudovirus neutralization.
result: 3 ng/mL
